Experiment: JHH-DIPG-1 glioma cell viability, MIPE5.0 library, CellTiter-Glo luminescence, qHTS (AID 1347067);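 also: cells exposed to compound for 48 hours before readout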
Settings: JHH-DIPG-1 glioma viability, CellTiter-Glo ATP luminescence
Results filed as inconclusive are left out. The source made the active and inactive calls. The limit is not given here; nearly all actives have AC50 up to about 26 µM.
Possible outcomes: Yes for active, No for inactive

CNC1CCC(N(Cc2cccc(-c3ccncc3)c2)C(=O)c2sc3c(F)ccc(F)c3c2Cl)CC1 (stereo not drawn)
Yes
CC(C)Oc1ccc(C(=O)N[C@H](CNC(=O)CN(C)C)Cc2ccc(-c3cn4cccc([C@H](C)O)c4n3)cc2)cc1Cl
No
COc1nc(OCc2cccc(-c3ccccc3)c2C)ccc1CNCCNC(C)=O
Yes
CC(=O)Nc1ccc(C(=O)Nc2ccccc2N)cc1
Yes
C[C@]12CCCN1CC1=NNC(=O)c3cc(F)cc4[nH]c2c1c34
No
CCOC(=O)C1=C[C@@H](OC(CC)CC)[C@H](NC(C)=O)[C@@H](N)C1
No
NC(=O)c1cc(F)cc2c1C(=O)N(C1CCN(C3CCC(F)(F)CC3)CC1)C2
No
Nc1ncnc2c1c(-c1cccc(OCc3ccccc3)c1)cn2C1CC(CN2CCCC2)C1 (stereo not drawn)
Yes
Cn1cnc2c(F)c(Nc3ccc(Br)cc3Cl)c(C(=O)NOCCO)cc21
Yes
CC1(COc2ccc3c(c2)ncn3-c2ccc3cccc(N4CCC(N)CC4)c3n2)COC1
Yes
CN(C)Cc1c(C(=O)NCCOc2ccc(C(=O)NO)cc2)oc2ccccc12
Yes
Cc1cn(-c2cc(NC(=O)c3ccc(C)c(Nc4nccc(-c5cccnc5)n4)c3)cc(C(F)(F)F)c2)cn1
Yes
O=C(NC1CCNCC1)c1[nH]ncc1NC(=O)c1c(Cl)cccc1Cl
Yes

###

Experiment: viability loss in pontine glioma line – cell-based, SU-DIPG-XVII, MIPE5.0, CellTiter-Glo, qHTS, dose response (AID 1347060);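 as to AC50: cells exposed to compound for 48 hours before viability readout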
Conditions: CellTiter-Glo ATP luminescence
Inconclusive results are not listed. Calls of active or inactive are those of the source. No cut-off is given here; in the data, nearly all actives have AC50 up to about 26 µM.
Possible outcomes: YES for active, NO for inactive

C=C1C[C@@H]2CC[C@@]34C[C@H]5O[C@H]6[C@@H](O3)[C@H]3O[C@H](CC[C@@H]3O[C@H]6[C@H]5O4)CC(=O)C[C@@H]3[C@@H](OC)[C@@H](C[C@H](O)CN)O[C@H]3C[C@H]3O[C@@H](CC[C@@H]1O2)C[C@@H](C)C3=C
YES
O=C(Nc1nccs1)C(c1cc(F)ccc1O)N1Cc2ccccc2C1=O (stereo unspecified)
NO
Cc1c(F)cc(C(=O)NC2CC2)cc1-c1c(F)cn2c(C(C)(C)C)nnc2c1F
NO
Cc1[nH]nc(C(F)(F)F)c1Cc1sc2c(c1C(=O)N1C[C@](C)(O)CO1)c(=O)n(C)c(=O)n2C(C)C
NO
Nc1nc(N)c2nc(-c3cccc(O)c3)c(-c3cccc(O)c3)nc2n1
NO
O[C@@H](COc1cccc2ncccc12)CN1CCN(C2c3ccccc3[C@@H]3[C@H](c4ccccc42)C3(F)F)CC1 (stereo partly specified)
YES
NS(=O)(=O)c1ccc(S(=O)(=O)Nc2cccc3c(Cl)c[nH]c23)cc1
YES
O=C(c1ccc(Nc2nc(C3CC3)cn3c(-c4cn[nH]c4)cnc23)c(F)c1)N1CCOCC1
YES
NC(=O)C1CCCc2c1[nH]c1ccc(Cl)cc21 (stereo unspecified)
NO
CC(C)Nc1cc(-c2c[nH]c(C(=O)N[C@H](CO)c3cccc(Cl)c3)c2)c(Cl)cn1
YES
Cc1c(F)ccc(C(=O)Nc2cc([N+](=O)[O-])ccc2N2CCN(C)CC2)c1Cl
YES
CN(CCOc1ccc(C[C@H](Nc2ccccc2C(=O)c2ccccc2)C(=O)O)cc1)c1ccccn1
NO
CNC(=O)c1c(F)cccc1Nc1nc(Nc2cc3c(cc2OC)CCN3C(=O)CN(C)C)nc2[nH]ccc12
YES
COc1ccc(-c2cc(C(O)C3CCCCN3)c3ccccc3n2)cc1 (stereo unspecified)
YES
Cc1nc(N)ncc1-c1nc(N2CCOCC2)c2sc(C(C)(C)O)cc2n1
YES
C[C@H](NC(=O)/C(C#N)=C/c1cccc(Br)n1)c1ccccc1
YES
O=C(NOCC(O)CO)c1ccc(F)c(F)c1Nc1ccc(I)cc1F (stereo unspecified)
YES
C=CC[N+]1([C@H]2C[C@H]3[C@@H]4CC[C@H]5C[C@H](O)[C@@H](N6CCOCC6)C[C@]5(C)[C@H]4CC[C@]3(C)[C@H]2OC(C)=O)CCCC1
NO
CCCc1cc(C)[nH]c(=O)c1CNC(=O)c1cc(-c2ccc(N3CCN(C(C)C)CC3)nc2)cc2c1cnn2C(C)C
YES
O=C(NCCCNc1nc(Nc2cccc(NC(=O)N3CCCC3)c2)ncc1I)c1cccs1
YES
CN(C)CCN(C)C(=O)c1ccc(NC(=O)Nc2ccc(-c3nc(N4CCOCC4)c4ccn(CC(F)(F)F)c4n3)cc2)cc1
YES
